# credit: PubChem BioAssay AID248

System: L1210 leukemia ip in BDF1 mice, survival T/C
procedureSummary: NCI In Vivo Anticancer Drug Screen. Data for tumor model L1210 Leukemia (intraperitoneal) in B6D2F1 (BDF1) mice
conditionParameters: endpoint: mean survival time; dose: 200.0 mg/kg/injection; schedule: Q01DX001 (ip); vehicle: carboxymethylcellulose (CMC); higher = longer survival
Inconclusive results and toxic doses are left out.
readoutKind: T/C

Below, each entry is followed by its recorded T/C result.
{"columns": ["molecule", "readoutKind", "observedResult"],
 "data": [
  ["O=C=Nc1cccc(S(=O)(=O)F)c1", "T/C", "105 % of control"],
  ["CCOC(=O)NC(NC(=O)OCC)C(NC(=O)OCC)NC(=O)OCC", "T/C", "91 % of control"],
  ["O=C1Nc2ccccc2C1=Nc1ccc2[nH]c3ccccc3c2c1", "T/C", "94 % of control"]
]}

Parameter requested: T/C. Apply to each item below.
1. CC(C)N1C(=O)NC(=O)C12CCN(Cc1ccccc1)CC2
2. CC1C(=O)NN=C1c1ccc([N+](=O)[O-])cc1 (stereo not drawn)
3. O=CNn1cn[nH]c1=S
4. CCCCCCCCCCCCCCCCCC1=Nc2cc(C)c(C)cc2NC(=O)C1
5. CC(=S)SCC(C)C
6. O=[N+]([O-])c1ccc2conc2c1
7. CC1(C)Oc2c(ccc(O)c2CN2CCOCC2)C2=C1CCCC2
8. Cc1ccc(/C=C/c2ccccn2)cc1

98 % of control
100 % of control
98 % of control
88 % of control
104 % of control
92 % of control
96 % of control
100 % of control

Provide T/C values for the following items, in order.
1. c1ccc(-c2cccc[c]2[Hg][c]2ccccc2-c2ccccc2)cc1
2. O=C1c2ccccc2-c2ccc([N+](=O)[O-])c(Br)c21

1: 93 % of control; 2: 106 % of control

----------
I'd be grateful if you could share measured T/C for these entries.
Tested on: L1210 leukemia ip in BDF1 mice, survival T/C
procedureSummary: NCI In Vivo Anticancer Drug Screen. Data for tumor model L1210 Leukemia (intraperitoneal) in B6D2F1 (BDF1) mice
conditionParameters: endpoint: mean survival time; dose: 100.0 mg/kg/injection; schedule: Q04DX003 (ip); vehicle: saline; higher = longer survival
Toxic doses and inconclusive results are not listed.

{"columns": ["compoundStructure", "observedResult"],
 "data": [
  ["CC(C)[P+](c1ccccc1)(c1ccccc1)c1ccccc1", "118 % of control"],
  ["N=C(N)SCCCN", "101 % of control"],
  ["CC(=O)OCCNc1ccc([N+](=O)[O-])cc1[N+](=O)[O-]", "101 % of control"]
]}

# batch: return T/C for each of the 4 compounds below
1. O=C1CNC(=O)N1
2. COc1ccc(Cl)cc1NC(=O)Nc1cccc2c(O)cccc12
3. O=C(Nc1ccc(F)c([N+](=O)[O-])c1)c1ccc2c(c1)C(=O)OC2=O
4. O/N=C/C=N/O.O/N=C/C=N/O.[Cl][Rh][Cl]

1: 94 % of control; 2: 107 % of control; 3: 106 % of control; 4: 104 % of control

----------
For each entry below, report its T/C value.
System: L1210 leukemia ip in BDF1 mice, survival T/C
procedureSummary: NCI In Vivo Anticancer Drug Screen. Data for tumor model L1210 Leukemia (intraperitoneal) in B6D2F1 (BDF1) mice
conditionParameters: endpoint: mean survival time; dose: 400.0 mg/kg/injection; schedule: Q04DX003 (ip); vehicle: saline; higher = longer survival
Toxic doses and inconclusive results are not listed.

The examples below pair each entry with its known result.
{"columns": ["compound", "observedResult"],
 "data": [
  ["c1cc(C2OCCO2)ccn1", "97 % of control"],
  ["O=S(=O)(O)c1cc(O)c2ccc(NNC(O)c3ccc(Cl)c(Cl)c3)cc2c1 (stereo not drawn)", "98 % of control"],
  ["CCN1c2c(nc(N)[nH]c2=O)NCC1CNc1ccc(C(=O)NC(CCC(=O)O)C(=O)O)cc1 (stereo not drawn)", "103 % of control"],
  ["Nc1nc2ncc(C(=O)O)nc2c(=O)[nH]1", "105 % of control"],
  ["CC(C)(C)C1CCC(S(C)(=O)=O)C(Cl)C1 (stereo not drawn)", "105 % of control"]
]}

Quick one: give me T/C for each item below, same order please.
1. O=C(O)C1CCCN1CCc1ccccc1 (stereo not drawn)
2. CC1=C/C(=N/NC(N)=O)CC(C)C1 (stereo not drawn)
3. COC1OC(CCl)C(Cl)CC1OC(C)=O (stereo not drawn)
4. O=C1CSC(=S)N1c1ccco1
5. COc1ccc(OC)c2c1C(=O)CC2C (stereo not drawn)
6. COc1ccc(CCN=C(c2ccccc2)c2ccccc2)cc1OC
7. S=C(SSC(=S)N1CCCCC1)N1CCCCC1

1. 97 % of control
2. 97 % of control
3. 98 % of control
4. 93 % of control
5. 91 % of control
6. 97 % of control
7. 101 % of control

What value of T/C has been reported for the following compound? COc1cccc2c1C(=O)c1c(O)c3c(c(O)c1C2=O)C[C@@](O)(C(=O)CO)C[C@@H]3OC1CC(NC(=S)Nc2ccc(F)cc2)C(O)C(C)O1 (stereo partly drawn) 104 % of control

----------
System: L1210 leukemia ip in BDF1 mice, survival T/C
procedureSummary: NCI In Vivo Anticancer Drug Screen. Data for tumor model L1210 Leukemia (intraperitoneal) in B6D2F1 (BDF1) mice
conditionParameters: endpoint: mean survival time; dose: 200.0 mg/kg/injection; schedule: Q04DX002 (ip); vehicle: saline with Tween-80; higher = longer survival
Toxic doses and inconclusive results are not listed.
Please go through the items and note down their T/C.

{"columns": ["compound", "T/C"],
 "data": [
  ["COc1ccc(-c2c(C)nc(N)nc2OC)cc1", "100 % of control"],
  ["C#CC1(O)CCCCCC1", "100 % of control"],
  ["CCOC(=O)C(=CNc1ccc(OC)cc1[N+](=O)[O-])C(=O)OCC", "88 % of control"]
]}

Each of the following entries comes with a recorded value; kindly state T/C for each.
1. C[C@]12CC[C@H]3[C@@H](CC=C4C[C@@H](O)CC[C@@]43C)[C@@H]1CC[C@@H]2N
2. CCCC(=O)N1CCCCCC1

1. 112 % of control
2. 113 % of control

Batch of 2 compounds: report T/C for each.
1. CN1C(=O)CCN(CCCN2CCC(=O)N(C)C2=S)C1=S
2. c1ccc(P(CCP(CCP(c2ccccc2)c2ccccc2)c2ccccc2)CCP(c2ccccc2)c2ccccc2)cc1 (configuration not stated)

1: 95 % of control; 2: 96 % of control

----------
System: L1210 leukemia ip in BDF1 mice, survival T/C
procedureSummary: NCI In Vivo Anticancer Drug Screen. Data for tumor model L1210 Leukemia (intraperitoneal) in B6D2F1 (BDF1) mice
conditionParameters: endpoint: mean survival time; dose: 100.0 mg/kg/injection; schedule: Q04DX002 (ip); vehicle: saline with Tween-80; higher = longer survival
Toxic doses and inconclusive results are not listed.
Kindly state T/C for each of the entries shown.

{"columns": ["molecule", "assaySystem", "T/C"],
 "data": [
  ["O=C1C2CCCC3CCCC(C(=O)N1O)C32 (stereo not drawn)", "L1210 leukemia ip in BDF1 mice, survival T/C", "104 % of control"],
  ["O=C(O)CNC(=O)c1cccc(Cl)c1", "L1210 leukemia ip in BDF1 mice, survival T/C", "95 % of control"],
  ["CN(C)c1ccc(C=NCCCO)cc1", "L1210 leukemia ip in BDF1 mice, survival T/C", "92 % of control"],
  ["CCCCOP(=S)(N1CCCCC1)N1CCCCC1", "L1210 leukemia ip in BDF1 mice, survival T/C", "96 % of control"],
  ["N#CCCSc1ccccc1", "L1210 leukemia ip in BDF1 mice, survival T/C", "86 % of control"]
]}

Could I get T/C for every one of these entries?
1. CC(=O)C1(Cl)CCC(C(C)(C)C)CC1 (stereo not drawn)
2. CCCCOCCOC(=O)C1OC1(C)c1ccccc1 (stereo not drawn)
3. CC(C)(C)OOC(=O)CCCl
4. NCC(=O)N/C(=C/c1ccccc1)C(=O)NCC(=O)O

1. 111 % of control
2. 100 % of control
3. 93 % of control
4. 97 % of control

Take each entry in turn and give its T/C.
1. O=C(CCl)Nc1ccc([N+](=O)[O-])cc1
2. O=c1oc2c(Cl)cc(Cl)cc2cc1-c1nc2ccccc2[nH]1

1. 97 % of control
2. 100 % of control

Give T/C for each of the items listed below.
1. CCOCCOCCOC(C)Oc1ccc(Cl)cc1Cl (stereo not drawn)
2. CCCCCCCCCCCCCCCCCCSC(C)(C)SCCCCCCCCCCCCCCCCCC
3. CCOC(=O)c1ccc(NC(=O)Oc2ccccc2C(C)C)cc1
4. COc1ccc(NC(=O)Nc2cccc([N+](=O)[O-])c2OC)cc1
5. CCC1(c2ccccc2)C(=O)NC(=O)N(Cc2ccccc2)C1=O (stereo not drawn)

["97 % of control", "106 % of control", "101 % of control", "89 % of control", "89 % of control"]

Each molecule below has a reported value. Please supply its T/C.
1. CCOC(=O)C(C(=S)Nc1ccccc1)=S(C)C
2. Cc1onc(-c2ccccc2Cl)c1C(=O)NCC(=O)O

["87 % of control", "104 % of control"]
